From: patent US20230331718A1

- System: SMN2 Splicing D7 (SMN Δ7 transcript)
- test: SMN Quantitative Splicing Assay (qPCR)
- Type: cell-based, human
- test conditions: Homo sapiens, Fibroblast, 24 h, SMA patient fibroblasts (GM03813), 2.5 µM to 0.6 nM
pIC50: −log10 of the molar value.
measurement kind: pIC50

molecule	pIC50
CN(c1cnc(-c2cc3occc(=O)c3cc2O)nn1)[C@@H]1CC2COC[C@@H](C1)N2	7.82 to 11.00
CN(c1cnc(-c2cc3cnn(C)c(=O)c3cc2O)nn1)[C@H]1C[C@@H]2CC[C@@](C)(N2)[C@H]1F	7.82 to 11.00
CCn1cc(F)c2cc(-c3ncc(N(C)[C@H]4CC5CC(F)(F)C(C4)N5)nn3)c(O)cc2c1=O (stereo partly drawn)	7.00 to 7.29
CN(c1cnc(-c2cc3cccnc3cc2O)nn1)C1CC2CCC(N2)[C@H]1F (stereo partly drawn)	7.30 to 7.80

What value of measured pIC50 is listed for CN(c1cnc(-c2cc3occc(=O)c3cc2O)nn1)[C@H]1C[C@]2(C)CCC[C@@](C)(N2)[C@H]1F ?
7.82 to 11.00

What value of pIC50 has been reported for the following molecule? CN(c1cnc(-c2cc3cnccc3cc2O)nn1)[C@H]1C[C@@H]2CC[C@@H](N2)[C@H]1F (single isomer, unassigned)
7.30 to 7.80

Give the measured pIC50 of CCn1ccc2cc(-c3ncc(N(C)[C@H]4C[C@@H]5CCCC(N5)[C@H]4F)nn3)c(O)cc2c1=O .
7.82 to 11.00

May I ask what pIC50 has been recorded for Cc1nc2cc(O)c(-c3ncc(N(C)[C@@H]4C[C@@]5(C)CC[C@](C)(N5)[C@@H]4F)nn3)cc2nc1C ?
7.30 to 7.80
